Please go through the items and note down their Ki.
- TARGET_DESC: UniProt P41145
- ASSAY_PROCEDURE: κ-opioid receptor radioligand dose-displacement binding assay ([3H]-U69,593)
- CONDITION_DESCRIPTION: binding affinity
Answers are plain numbers, in nM.

MOLECULE: NC(=O)c1cc2c([nH]c1=O)C[C@@]13CCN(CC4CC4)C[C@@]1(Cc1ccc(O)cc13)C2 [Compound 7]
REPORTED: 148

MOLECULE: O=C1NC(=O)[C@]2(CC[C@@]34Cc5ccc(O)cc5[C@@]3(CCN(CC3CC3)C4)C2)N1 [Compound 9]
REPORTED: 148

COc1ccc2c(c1)[C@]13CCN(CC4CC4)C[C@@]1(C2)Cc1cc(C(N)=O)c(=O)[nH]c1C3 [Compound 6] yielded Ki of 4280

* * *

- TARGET_DESC: UniProt P35372
- ASSAY_PROCEDURE: μ-opioid receptor radioligand dose-displacement binding assay ([3H]-diprenorphine)
- CONDITION_DESCRIPTION: binding affinity, read-out: Opioid Receptor Ki (nM) μ
- Procedure: Radioligand dose-displacement binding assays for μ-opioid receptors used 0.3 nM [^3H]-diprenorphine (Perkin Elmer, Shelton, Conn.), with […] membrane protein/well in a final volume of 500 μl binding buffer (10 mM MgCl2, 1 mM EDTA, 5% DMSO, 50 mM HEPES, pH 7.4). […] BetaScint scintillation cocktail (Perkin Elmer, Shelton, Conn.) was added (50 μl/well), and plates were counted using a Packard Top-Count for 1 min/well. […]
Please go through the items and note down their Ki.

CHEMICAL_SMILES: O=C1NC(=O)[C@]2(CC[C@@]34Cc5ccc(O)cc5[C@@]3(CCN(CC3CC3)C4)C2)N1
Ki: 676 nM

CHEMICAL_SMILES: COc1ccc2c(c1)[C@]13CCN(CC4CC4)C[C@]1(CC[C@@]1(C3)NC(=O)NC1=O)C2
Ki: 6250 nM

CHEMICAL_SMILES: COc1ccc2c(c1)[C@]13CCN(CC4CC4)C[C@@]1(C2)Cc1cc(C(N)=O)c(=O)[nH]c1C3
Ki: 15600 nM

CHEMICAL_SMILES: COC(=O)c1cc2c([nH]c1=O)C[C@@]13CCN(CC4CC4)C[C@@]1(Cc1ccc(OC)cc13)C2
Ki: 9550 nM

CHEMICAL_SMILES: NC(=O)c1cc2c([nH]c1=O)C[C@@]13CCN(CC4CC4)C[C@@]1(Cc1ccc(O)cc13)C2
Ki: 770 nM

Field: next molecule
O=C1NC(=O)[C@@]2(CC[C@@]34Cc5ccc(O)cc5[C@@]3(CCN(CC3CC3)C4)C2)N1 yielded Ki of 472 nM

* * *

Please go through the items and note down their Ki.
- TARGET_DESC: κ opioid receptor (Homo sapiens (Human), UniProt P41145)
- ASSAY_PROCEDURE: κ-opioid receptor radioligand dose-displacement binding assay ([3H]-U69,593)
- CONDITION_DESCRIPTION: binding affinity
- Method: Membranes from HEK-293 cells, CHO or U-2 OS cells expressing the recombinant human κ opioid receptor (κ) were prepared by lysing cells in ice cold hypotonic buffer (2.5 mM MgCl2, 50 mM HEPES, pH 7.4) (10 mL/10 cm dish) followed by homogenization with a tissue grinder/Teflon pestle. […] Protein concentrations were determined using the BioRad protein assay reagent with bovine serum albumen as standard. […]
Numbers only, in nM.

Known Ki results, listed for orientation:
CHEMICAL_SMILES: COC(=O)c1cc2c([nH]c1=O)C[C@@]13CCN(CC4CC4)C[C@@]1(Cc1ccc(OC)cc13)C2
TARGET_DESC: κ opioid receptor (Homo sapiens (Human), UniProt P41145)
Ki [nM]: 3600
//
CHEMICAL_SMILES: COc1ccc2c(c1)[C@]13CCN(CC4CC4)C[C@]1(CC[C@@]1(C3)NC(=O)NC1=O)C2
TARGET_DESC: κ opioid receptor (Homo sapiens (Human), UniProt P41145)
Ki [nM]: 4760

Hi, could you look up Ki for each item in my list?
1. O=C1NC(=O)[C@@]2(CC[C@@]34Cc5ccc(O)cc5[C@@]3(CCN(CC3CC3)C4)C2)N1
2. COc1ccc2c(c1)[C@]13CCN(CC4CC4)C[C@]1(CC[C@]1(C3)NC(=O)NC1=O)C2

**Result**
72.5
8410

* * *

- TARGET_DESC: μ-opioid receptor (Homo sapiens (Human), UniProt P35372)
- ASSAY_PROCEDURE: μ-opioid receptor radioligand dose-displacement binding assay ([3H]-diprenorphine)
- CONDITION_DESCRIPTION: binding affinity, read-out: Opioid Receptor Ki μ
pKi: −log10 of the molar value.
ENDPOINT: pKi

COc1ccc2c(c1)[C@]13CCN(CC4CC4)C[C@]1(CC[C@]1(C3)NC(=O)NC1=O)C2 yielded pKi of < 4.70

* * *

Please go through the items and note down their pEC50.
- TARGET_DESC: UniProtKB P41145
- ASSAY_PROCEDURE: κ-opioid receptor [35S]GTPγS functional assay
- CONDITION_DESCRIPTION: GTPγS functional assay using U-2 OS cells
Give bare numbers, as −log10 of the molar value.

Known pEC50 results, listed for orientation:
MOLECULE: NC(=O)c1cc2c([nH]c1=O)C[C@@]13CCN(CC4CC4)C[C@@]1(Cc1ccc(O)cc13)C2 [Compound 7]
REPORTED: 6.24

MOLECULE: O=C1NC(=O)[C@]2(CC[C@@]34Cc5ccc(O)cc5[C@@]3(CCN(CC3CC3)C4)C2)N1 [Compound 9]
REPORTED: 6.50

O=C1NC(=O)[C@@]2(CC[C@@]34Cc5ccc(O)cc5[C@@]3(CCN(CC3CC3)C4)C2)N1 [Compound 8] yielded pEC50 of 6.42

Numbers sourced from patent US9340542B2.
